# TEST_DESCRIPTION: Pharmacokinetic study for oral bioavailability in rats
# Assay type: in vivo, Male Sprague-Dawley rats
# CONDITIONS_USED: male, Sprague-Dawley, rat, plasma; oral dosing in rats, 30 mg/kg; read-out: Cmax
METRIC: Cmax (ng/mL)
Supply the numeric figure in ng/mL, leaving out any unit text.

See these solved cases before continuing.
>>> observed_result("N=C(N)c1csc(CNC(=O)[C@@H]2CCCN2C(=O)[C@H](NS(N)(=O)=O)C(c2ccccc2)c2ccccc2)c1")
2100
>>> observed_result("COC(=O)N[C@@H](C(=O)N1CCC[C@H]1C(=O)NCc1csc(C(=N)N)c1)C(c1ccccc1)c1ccccc1")
5200
>>> observed_result("COC(=O)N[C@@H](C(=O)N1CCC[C@H]1C(=O)NCc1ccc(C(=N)N)s1)C(c1ccccc1)c1ccccc1")
9600
>>> observed_result("COC(=O)N[C@@H](C(=O)N1CCC[C@H]1C(=O)NCc1ccc(C(=N)N)o1)C(c1ccccc1)c1ccccc1")
7100
>>> observed_result("CS(=O)(=O)N[C@@H](C(=O)N1CCC[C@H]1C(=O)NCc1ccc(CN)s1)C(c1ccccc1)c1ccccc1")
1800

Then there is this compound:
So for `COC(=O)N[C@@H](C(=O)N1CCC[C@H]1C(=O)NCc1cc(C(=N)N)cs1)C(c1ccccc1)c1ccccc1` , the logged Cmax turned out to be 4500

Value source: patent US6864249B2
